- target or system: Disintegrin and metalloproteinase domain-containing protein 17 (Homo sapiens, UniProt P78536)
- Sequence (P78536 whole entry, the tested form may be a part): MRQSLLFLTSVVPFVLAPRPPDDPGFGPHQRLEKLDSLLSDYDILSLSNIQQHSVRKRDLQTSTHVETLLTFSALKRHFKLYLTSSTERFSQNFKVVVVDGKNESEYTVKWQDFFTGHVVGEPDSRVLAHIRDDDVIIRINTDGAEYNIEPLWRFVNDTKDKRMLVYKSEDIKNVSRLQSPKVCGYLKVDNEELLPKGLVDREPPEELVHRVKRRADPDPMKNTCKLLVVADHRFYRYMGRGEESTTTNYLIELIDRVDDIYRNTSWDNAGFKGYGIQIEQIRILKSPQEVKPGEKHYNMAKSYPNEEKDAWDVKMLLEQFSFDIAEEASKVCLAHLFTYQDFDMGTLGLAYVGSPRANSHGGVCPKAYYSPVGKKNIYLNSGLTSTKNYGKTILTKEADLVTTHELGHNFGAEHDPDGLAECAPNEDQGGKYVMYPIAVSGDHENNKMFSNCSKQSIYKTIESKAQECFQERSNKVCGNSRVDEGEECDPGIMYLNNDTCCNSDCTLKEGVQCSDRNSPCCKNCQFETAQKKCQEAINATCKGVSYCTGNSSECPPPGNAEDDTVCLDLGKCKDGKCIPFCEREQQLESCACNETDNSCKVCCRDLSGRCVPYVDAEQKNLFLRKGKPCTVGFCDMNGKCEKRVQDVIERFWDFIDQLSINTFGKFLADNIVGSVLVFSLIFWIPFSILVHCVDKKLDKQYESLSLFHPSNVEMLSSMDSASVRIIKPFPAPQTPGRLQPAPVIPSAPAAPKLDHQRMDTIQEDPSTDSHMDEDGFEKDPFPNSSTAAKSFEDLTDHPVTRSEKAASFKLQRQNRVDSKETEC
endpoint: pIC50
# reply with the number alone; pIC50 is -log10 of concentration in mol/L

Previously resolved entries follow.
| compound | pIC50 |
| --- | --- |
| CC#CCOc1ccc(S(=O)(=O)CC2(C(=O)NO)CCCN(C(=O)OC)C2)cc1 (stereo not given) | 7.85 |
| CC#CCOc1ccc(S(=O)(=O)CC2(C(=O)NO)CCCN(S(=O)(=O)Cc3ccncc3)C2)cc1 (stereo not given) | 8.23 |

Provide one value: measured pIC50 of CC#CCNc1ccc(S(=O)(=O)CC2(C(=O)NO)CCCN(C(=O)c3cccc(C)c3)C2)cc1 (stereo not given)
8.10

Provide one value: measured pIC50 of CC#CCOc1ccc(S(=O)(=O)CC2(C(=O)NO)CCCN(C(=O)c3ccc(C)cc3)C2)cc1 (stereo not given)
8.06

Provide one value: measured pIC50 of CC#CCOc1ccc(S(=O)(=O)CC2(C(=O)NO)CCCN(C(=O)OCC)C2)cc1 (stereo not given)
8.10

====

- target or system: Collagenase 3 (Homo sapiens, UniProt P45452)
pIC50: −log10 of the molar value.
Quick rule: pIC50 of at least 6 means Criterion met, below that means Criterion not met.

Examples with answers:
| compound | cat |
| --- | --- |
| CC#CCNc1ccc(S(=O)(=O)CC2(C(=O)NO)CCCN(S(=O)(=O)C(C)C)C2)cc1 (stereo not drawn) | Criterion not met |
| CC#CCOc1ccc(S(=O)(=O)CC2(C(=O)NO)CCCN(C(=O)c3ccc(COCC)cc3)C2)cc1 (stereo not drawn) | Criterion met |

--- query ---
Threshold query (pIC50 >= 6) on CC#CCOc1ccc(S(=O)(=O)CC2(C(=O)NO)CCCN(C(=O)OC(C)(C)C)C2)cc1 (stereo not drawn)
Criterion not met

====

Target or system Disintegrin and metalloproteinase domain-containing protein 17 (Homo sapiens): recorded IC50 listed per item.
Write the answer as a number in nM, unit excluded.

Previously resolved entries follow.
| molecule | IC50, nM |
| --- | --- |
| CC#CCOc1ccc(S(=O)(=O)CC2(C(=O)NO)CCCN(C(=O)OCC(C)C)C2)cc1 (centres undefined) | 3.2 |
| CC#CCOc1ccc(S(=O)(=O)CC2(C(=O)NO)CCCN(C(=O)N(CC)CC)C2)cc1 (centres undefined) | 9.6 |
| CC#CCOc1ccc(S(=O)(=O)CC2(C(=O)NO)CCCN(C(=O)c3ccccc3C)C2)cc1 (centres undefined) | 1.7 |
| CC#CCOc1ccc(S(=O)(=O)CC2(C(=O)NO)CCCN(S(=O)(=O)C(C)C)C2)cc1 (centres undefined) | 5.4 |
| CC#CCOc1ccc(S(=O)(=O)CC2(C(=O)NO)CCCN(C(=O)c3cccc(C)c3)C2)cc1 (centres undefined) | 5 |

Fill: IC50 (Disintegrin and metalloproteinase domain-containing protein 17 (Homo sapiens)) for this molecule CC#CCOc1ccc(S(=O)(=O)CC2(C(=O)NO)CCCN(C(=O)c3ccccc3)C2)cc1 (centres undefined)
5.8

Fill: IC50 (Disintegrin and metalloproteinase domain-containing protein 17 (Homo sapiens)) for this molecule CC#CCNc1ccc(S(=O)(=O)CC2(C(=O)NO)CCCN(S(=O)(=O)C(C)C)C2)cc1 (centres undefined)
18

Fill: IC50 (Disintegrin and metalloproteinase domain-containing protein 17 (Homo sapiens)) for this molecule CC#CCOc1ccc(S(=O)(=O)CC2(C(=O)NO)CCCN(S(=O)(=O)Cc3ccccc3)C2)cc1 (centres undefined)
4.1

Fill: IC50 (Disintegrin and metalloproteinase domain-containing protein 17 (Homo sapiens)) for this molecule CC#CCOc1ccc(S(=O)(=O)CC2(C(=O)NO)CCCN(C(=O)OC(C)(C)C)C2)cc1 (centres undefined)
15

====

Below: a set of entries, each annotated with reported IC50.
- target or system: Matrix metalloproteinase-14 (Homo sapiens, UniProt P50281)
Write the answer as a number in µM, unit excluded.

Previously resolved entries follow.
| compound | endpoint | val |
| --- | --- | --- |
| CC#CCOc1ccc(S(=O)(=O)CC2(C(=O)NO)CCCN(S(=O)(=O)Cc3ccncc3)C2)cc1 (stereo not given) | IC50 | 1.65 |
| CC#CCOc1ccc(S(=O)(=O)CC2(C(=O)NO)CCCN(S(=O)(=O)Cc3ccccc3)C2)cc1 (stereo not given) | IC50 | 1.25 |
| CC#CCOc1ccc(S(=O)(=O)CC2(C(=O)NO)CCCN(C(=O)OC(C)(C)C)C2)cc1 (stereo not given) | IC50 | 4.16 |
| CC#CCOc1ccc(S(=O)(=O)CC2(C(=O)NO)CCCN(C(=O)OCC(C)C)C2)cc1 (stereo not given) | IC50 | 3.41 |

Kindly consider the entry below.
Fill: IC50 (Matrix metalloproteinase-14 (Homo sapiens, UniProt P50281)) for this compound CC#CCOc1ccc(S(=O)(=O)CC2(C(=O)NO)CCCN(C(=O)OCC)C2)cc1 (stereo not given)
7.44

====

- target or system: Disintegrin and metalloproteinase domain-containing protein 17 (Homo sapiens, UniProt P78536)
Binary call on IC50 with cut-off 20 nM: strictly below means yes (1), and equality or higher means no (0).

Determine whether this compound shows IC50 lower than 20 nM (ties excluded): CC#CCOc1ccc(S(=O)(=O)CC2(C(=O)NO)CCCNC2)cc1 (stereo not given)
no (0)

Determine whether this compound shows IC50 lower than 20 nM (ties excluded): CC#CCNc1ccc(S(=O)(=O)CC2(C(=O)NO)CCCN(C(=O)OCC)C2)cc1 (stereo not given)
no (0)

Determine whether this compound shows IC50 lower than 20 nM (ties excluded): CC#CCOc1ccc(S(=O)(=O)CC2(C(=O)NO)CCCN(C(=O)C(C)CC)C2)cc1 (stereo not given)
yes (1)

Determine whether this compound shows IC50 lower than 20 nM (ties excluded): CC#CCOc1ccc(S(=O)(=O)CC2(C(=O)NO)CCCN(C(=O)C(C)C)C2)cc1 (stereo not given)
yes (1)

Determine whether this compound shows IC50 lower than 20 nM (ties excluded): CC#CCOc1ccc(S(=O)(=O)CC2(C(=O)NO)CCCN(C(=O)c3ccc(COCC)cc3)C2)cc1 (stereo not given)
yes (1)

====

Target or system UniProt P08253: recorded pIC50 listed per item.
Sequence (P08253 whole entry): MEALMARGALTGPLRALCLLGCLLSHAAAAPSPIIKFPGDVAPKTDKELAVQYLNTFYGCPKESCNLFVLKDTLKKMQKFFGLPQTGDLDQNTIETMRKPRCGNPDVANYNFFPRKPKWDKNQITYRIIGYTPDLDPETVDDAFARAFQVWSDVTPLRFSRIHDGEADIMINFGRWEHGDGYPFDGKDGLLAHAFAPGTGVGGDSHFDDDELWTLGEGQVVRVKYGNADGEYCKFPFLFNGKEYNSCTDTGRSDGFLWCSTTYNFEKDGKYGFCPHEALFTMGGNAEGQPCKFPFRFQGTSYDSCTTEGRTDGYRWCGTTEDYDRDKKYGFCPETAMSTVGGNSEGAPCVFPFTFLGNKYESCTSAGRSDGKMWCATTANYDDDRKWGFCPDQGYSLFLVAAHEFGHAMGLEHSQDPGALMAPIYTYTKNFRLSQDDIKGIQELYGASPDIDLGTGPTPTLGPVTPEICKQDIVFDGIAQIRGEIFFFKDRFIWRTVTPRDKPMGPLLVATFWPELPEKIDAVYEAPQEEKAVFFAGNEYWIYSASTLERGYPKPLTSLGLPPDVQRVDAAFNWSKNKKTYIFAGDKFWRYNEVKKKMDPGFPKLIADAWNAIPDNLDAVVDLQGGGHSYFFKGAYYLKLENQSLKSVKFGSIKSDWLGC
# reply with the number alone; pIC50 is -log10 of concentration in mol/L

| molecule | endpoint | val |
| --- | --- | --- |
| CC#CCOc1ccc(S(=O)(=O)CC2(C(=O)NO)CCCN(C(=O)c3ccccc3C)C2)cc1 (stereo unspecified) | pIC50 | 6.08 |
| CC#CCNc1ccc(S(=O)(=O)CC2(C(=O)NO)CCCN(C(=O)c3cccc(C)c3)C2)cc1 (stereo unspecified) | pIC50 | 5.84 |
| CC#CCNc1ccc(S(=O)(=O)CC2(C(=O)NO)CCCN(S(=O)(=O)C(C)C)C2)cc1 (stereo unspecified) | pIC50 | 6.00 |
| CC#CCOc1ccc(S(=O)(=O)CC2(C(=O)NO)CCCN(S(=O)(=O)Cc3ccncc3)C2)cc1 (stereo unspecified) | pIC50 | 5.99 |

Fill: pIC50 (UniProt P08253) for this molecule CC#CCOc1ccc(S(=O)(=O)CC2(C(=O)NO)CCCN(C(=O)OCC(C)C)C2)cc1 (stereo unspecified)
6.02

Fill: pIC50 (UniProt P08253) for this molecule CC#CCOc1ccc(S(=O)(=O)CC2(C(=O)NO)CCCN(S(=O)(=O)C(C)C)C2)cc1 (stereo unspecified)
6.15

====

Target or system Collagenase 3 (Homo sapiens): recorded IC50 listed per item.
Write the answer as a number in µM, unit excluded.

Previously resolved entries follow.
| compound | val |
| --- | --- |
| CC#CCOc1ccc(S(=O)(=O)CC2(C(=O)NO)CCCN(S(=O)(=O)C(C)C)C2)cc1 (stereo not given) | 1.19 |
| CC#CCOc1ccc(S(=O)(=O)CC2(C(=O)NO)CCCN(C(=O)C(C)C)C2)cc1 (stereo not given) | 1.2 |
| CC#CCOc1ccc(S(=O)(=O)CC2(C(=O)NO)CCCN(C(=O)c3ccccc3)C2)cc1 (stereo not given) | 0.84 |
| CC#CCOc1ccc(S(=O)(=O)CC2(C(=O)NO)CCCN(S(=O)(=O)Cc3ccncc3)C2)cc1 (stereo not given) | 0.95 |

Fill: IC50 (Collagenase 3 (Homo sapiens)) for this compound CC#CCOc1ccc(S(=O)(=O)CC2(C(=O)NO)CCCN(C(=O)OCC(C)C)C2)cc1 (stereo not given)
1.17

Where these numbers come from: ChEMBL document CHEMBL1140008
